Entries annotated with measured GI50
Tested on: HCT-15
property_measured: GI50

1) O=[As](O)(O)c1ccc(/N=N/c2ccc([As](=O)(O)O)cc2)cc1 :: > 100 µM
2) CN(C)CCNC1=Nc2ccccc2C(=O)N2CSCC12 (stereo not drawn) :: > 100 µM
3) CC(C)(C)OC(=O)N/N=C(/N)Cc1ccc(Cl)cc1 :: > 100 µM

----------
Tested on: ACHN
test_description: NCI tumour cell line growth inhibition, 48 h
Active and inactive are the calls of the source. No stated cut-off is given here; in the data, active = GI50 up to about 1.1 µM and inactive = higher.
Labels: active, inactive

1. CCN(CC)CCn1c2cc3c(cc2c(=O)c2cccnc21)OCO3 :: inactive
2. O=C1c2ccccc2C(=O)c2sc(Nc3ccccc3C(F)(F)F)nc21 :: inactive
3. Nc1ncnc2c1ncn2C1C=CC(COS(N)(=O)=O)C1 (stereo not drawn) :: inactive
4. C1CSCCSCCSCCSC1 :: inactive
5. Cc1cc(C)c2c(O)cc(-c3cccc(Cl)c3)nc2n1 :: inactive
6. CCN(CC)/[N+]([O-])=N/O :: inactive
7. CC1CCC(C(C)C)C(OC(=O)NCn2cc(-c3ccccc3)nn2)C1 (stereo not drawn) :: inactive
8. CCOC(=O)CCC(NC(=O)c1ccc(N2CCN(c3c(C)nc(N)nc3N)CC2)cc1)C(=O)OCC (stereo not drawn) :: active
9. C/C=C/C1(NS(=O)(=O)c2ccc(C)cc2)CCC(C(C)(C)C)CC1 (stereo not drawn) :: inactive
10. COc1c(N2CCCCC2)c2c(=O)c3ccccc3oc2c2c3ccccc3n(C)c12 :: inactive
11. c1ccc(Cc2cccc3cc(-c4ccc(-c5ccccc5)cc4)[nH]c23)cc1 :: inactive
12. COc1cc(/C=C2\[C@H]3c4c(c(OC)c(C)c(OC)c4OC)C[C@@H](C(=O)N2Cc2ccccc2)N3C(=O)OC(C)C)c(OC)c(C)c1OC :: inactive
13. O=C(CC(=O)C1CCOC1=O)C(=O)Nc1ccc(Cl)cc1 (stereo not drawn) :: inactive
14. Cc1ccc(-c2ccc(Nc3c4ccccc4nc4ccccc34)cc2)cn1 :: inactive
15. CCCCNc1nc(C#N)c(N)s1 :: inactive
16. COc1ccc(/C=N/NS(=O)(=O)c2ccc(/C=C3\NC(=O)N(C)C3=O)cc2)cc1 :: inactive
17. CSCCC(NCc1c(O)ccc2ccc(=O)oc12)C(=O)O (stereo not drawn) :: inactive
18. COc1cc(-c2cc(=O)c3c(OC)c(OC)c(OC)c(OC)c3o2)c(OC)c(OC)c1OC :: inactive
19. Cc1cc2c(c(C(=O)O)c1C)-c1cccc(F)c1C2=O :: inactive
20. COc1cc(C(=O)N(C(=S)OC23CC4CC(CC(C4)C2)C3)c2ccccc2)cc(OC)c1OC :: inactive
21. CCCC1C2=C(C(=O)OC2=O)C2C(CC)CC3=C(C(=O)OC3=O)C12 (stereo not drawn) :: inactive
22. Cc1cc2c(C=O)n[nH]c2c(C#N)c1C :: inactive
23. CC1=CC(O)(c2ccccc2)C(N2CCOCC2)N1O (stereo not drawn) :: inactive
24. CC(C)CC1C(=O)NCCC(NC(=O)C(N)Cc2ccc(O)cc2)C(=O)NC(Cc2ccccc2)C(=O)NC(Cc2ccccc2)NC1=O (stereo not drawn) :: inactive
25. O=C(Nc1nc(C23CC4CC(CC(C4)C2)C3)cs1)c1c(O)c2ccccc2[nH]c1=O :: inactive
26. COc1ccc2cc3nc(O)cc(O)c3cc2c1OC :: inactive
27. O=S(=O)(O)c1cc(/N=N/c2cc(S(=O)(=O)O)c3ccccc3c2O)ccc1/C=C/c1ccc(/N=N/c2cc(S(=O)(=O)O)c3ccccc3c2O)cc1S(=O)(=O)O :: inactive
28. COc1ccccc1NC(=S)NNC(=O)c1cc(-c2ccccc2)nc2ccccc12 :: inactive
